B1: TPR t1 (parent)
chain: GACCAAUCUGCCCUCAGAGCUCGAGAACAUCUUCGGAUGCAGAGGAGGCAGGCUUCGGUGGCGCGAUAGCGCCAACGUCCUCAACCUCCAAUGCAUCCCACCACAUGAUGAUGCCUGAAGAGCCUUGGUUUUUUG

Variants of: B1
protocol.summary: polymerase ribozyme fitness, log enrichment relative to wild type (log ratio); higher = more active; in vitro selection for triplet polymerase activity
Label 1 (yes) when polymerase ribozyme fitness (log ratio) >= -5; otherwise 0 (no).

Req: Determine whether measured polymerase ribozyme fitness (log ratio) meets or exceeds -5 for C11G C12G
Resp: 1 (yes)

Req: Determine whether measured polymerase ribozyme fitness (log ratio) meets or exceeds -5 for A18G U78A C86A C97A C102U U109A G113C
Resp: 0 (no)

Req: Determine whether measured polymerase ribozyme fitness (log ratio) meets or exceeds -5 for C49U U81C A95G C102G G110U G135U
Resp: 0 (no)

Req: Determine whether measured polymerase ribozyme fitness (log ratio) meets or exceeds -5 for U81G G93A U106A C123U
Resp: 1 (yes)

Req: Determine whether measured polymerase ribozyme fitness (log ratio) meets or exceeds -5 for C13G G45U C82U G113A
Resp: 1 (yes)

// provenance: the RNAGym collection of RNA variant scans (doi:10.1073/pnas.2313332121)
